protocol-details: drug combination growth inhibition, ovarian cancer – cell-based, oncology-focused library, rucaparib conditional, profiling panel (AID 1508598)
experimental-setup: patient-derived ovarian cancer cells, CellTiter-Glo viability, 144 h; at 0.000305 µM; OCI-C5x cells; with rucaparib 10 µM; stronger effect = lower value; 100% = cells with rucaparib alone
observed-property: viability (%)
Answer in %, number only, no unit symbol.

Illustrative cases are given below, each with its answer.
[
  {
    "compound": "CCOc1cc(N2CCC(O)CC2)ccc1Nc1ncc2c(n1)N(C)c1ccccc1C(=O)N2C",
    "measured-value": 123
  },
  {
    "compound": "Cn1cnc2c(F)c(Nc3ccc(Br)cc3Cl)c(C(=O)NOCCO)cc21",
    "measured-value": 105
  },
  {
    "compound": "CC(/C=C/C(=O)NO)=C\\[C@@H](C)C(=O)c1ccc(N(C)C)cc1",
    "measured-value": 111
  },
  {
    "compound": "CCCCCCCCc1ccc(CCC(N)(CO)CO)cc1",
    "measured-value": 106
  },
  {
    "compound": "Cn1cc(-c2ccc3nnc(Sc4ccc5ncccc5c4)n3n2)cn1",
    "measured-value": 127
  }
]

Look at this compound and give its reported viability. COc1cc(Nc2ncc(F)c(Nc3ccc4c(n3)NC(=O)C(C)(C)O4)n2)cc(OC)c1OC
109

Please give the measured viability for this compound: O=C(Nc1ccccc1-c1cn2c(CN3CCNCC3)csc2n1)c1cnc2ccccc2n1
102

Need viability, item Nc1ccc(-c2ccc3ncc4ccc(=O)n(-c5cccc(C(F)(F)F)c5)c4c3c2)cn1
117

Consider the compound shown here: COc1cc2nccc(Oc3ccc(NC(=O)NC4CC4)c(Cl)c3)c2cc1C(N)=O What is its recorded viability?
125

For the compound Cc1cn(-c2cc(NC(=O)c3ccc(C)c(Nc4nccc(-c5cccnc5)n4)c3)cc(C(F)(F)F)c2)cn1 , what viability is on record?
106

Would you mind telling me what viability value was observed for Nc1cccc2c1C(=O)N(C1CCC(=O)NC1=O)C2=O (stereo unspecified) ?
110

For the compound COCCn1c2c([n+](Cc3cnccn3)c1C)C(=O)c1ccccc1C2=O , what viability is on record?
92.6

Given the compound O=C(Nc1cccc(Cl)c1)Nc1ncc(CCNc2ncnc3ccsc23)s1 , what is its reported viability?
108

Fill in: viability of CC1(COc2ccc3c(c2)ncn3-c2ccc3cccc(N4CCC(N)CC4)c3n2)COC1 is ___
110

Given Cn1cc(CNCC2CCN(c3ncc(C(=O)NO)cn3)CC2)c2ccccc21 , state its recorded viability.
126

Would you mind telling me what viability value was observed for COc1ccc(COc2cc3oc(=O)c4cc(C(C)O)ccc4c3cc2OC)cc1 (stereo unspecified) ?
108

====

protocol-details: MELAS cybrid and Rieske KO viability enhancers – cell-based, MELAS cybrids, Rieske KO mouse fibroblasts, CellTiter-Glo, primary screen (AID 1508586);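 also: z relative to plate mean and SD of compound and empty wells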
experimental-setup: MELAS cybrid survival, low glucose, CellTiter-Glo 48 h; stronger effect = higher value
Below is a list of entries, each paired with its recorded z-score value.
# print the numeric value only

// worked examples, z-score included
[
  {
    "compound": "O=C(CCCCCN1C(=O)c2cccc3cccc(c23)C1=O)NO",
    "z-score": 1.18
  },
  {
    "compound": "COc1cc2c(Oc3ccc(NC(=O)C4(C(=O)Nc5ccc(F)cc5)CC4)cc3F)ccnc2cc1OCCCN1CCOCC1",
    "z-score": 2.58
  },
  {
    "compound": "CN(C(Cc1ccc(OS(=O)(=O)c2cccc3cnccc23)cc1)C(=O)N1CCN(c2ccccc2)CC1)S(=O)(=O)c1cccc2cnccc12 (stereo not given)",
    "z-score": -0.441
  },
  {
    "compound": "COc1ccc2c(Oc3ccc(NC(=O)c4c(C)n(CC(C)(C)O)n(-c5ccccc5)c4=O)nc3)ccnc2c1",
    "z-score": -0.36
  },
  {
    "compound": "COc1cc2c(cc1OC)CN(CCc1ccc(NC(=O)c3cc(OC)c(OC)cc3NC(=O)c3cnc4ccccc4c3)cc1)CC2",
    "z-score": -0.604
  },
  {
    "compound": "C[C@@H]1NC(=O)NC1=O",
    "z-score": 0.462
  },
  {
    "compound": "COc1ccccc1N1CCN(CCCCNC(=O)c2ccc3ccccc3c2)CC1",
    "z-score": -0.843
  },
  {
    "compound": "Nc1cccc2c1C(=O)N(C1CCC(=O)NC1=O)C2=O (stereo not given)",
    "z-score": 0.05
  },
  {
    "compound": "Cc1ccc(S(=O)(=O)Cc2nc(-c3ccc(C(=O)NCc4cccnc4)cc3)oc2C)cc1",
    "z-score": -0.778
  },
  {
    "compound": "COc1ccc2cc(-c3nc(-c4ccc(S(C)=O)cc4)[nH]c3-c3ccncc3)ccc2c1 (stereo not given)",
    "z-score": -0.573
  }
]

z-score lookup needed for COC1CCN(C(=O)c2cc(Cc3n[nH]c(=O)c4ccccc34)ccc2F)CC1 , thanks.
-0.18

Which z-score value belongs to CC(C)c1cc(C(C)C)c(CC(=O)NS(=O)(=O)Oc2c(C(C)C)cccc2C(C)C)c(C(C)C)c1 ?
-0.406

z-score lookup needed for Cc1coc2c1C(=O)C(=O)c1c-2ccc2c(C)cccc12 , thanks.
-0.324

Give the measured z-score of C=CC(=O)Nc1cccc(Oc2nc(Nc3ccc(N4CCN(C)CC4)cc3)ncc2Cl)c1 .
1.07

Please look up its z-score: CC(C)OC(=O)C1=CN(C(=O)c2ccc(F)c(F)c2)CC(C)(C)c2c1[nH]c1ccccc21
-0.00254

Query (compound): COc1cc(N2CCC(N)CC2)ccc1Nc1ncc(Cl)c(-c2c[nH]c3ccccc23)n1 ; field requested: z-score
0.226

====

protocol-details: viability loss with induced miR-34 in A549 – imaging, A549 dox-inducible miR-34, nuclei and caspase counts, primary screen (AID 1347080)
experimental-setup: A549 miR-34 inducible, Hoechst nuclei count, 48 h; stronger effect = lower value; cell number ratio, induced over uninduced
Collected fold change values appear next to each entry.
Reply briefly: the number, and no unit.

Example results:
[
  {
    "compound": "Cc1ccc(F)c(NC(=O)Nc2ccc(-c3cccc4[nH]nc(N)c34)cc2)c1",
    "fold change": 0.905
  },
  {
    "compound": "O=C(O)c1cc(Oc2ccc([N+](=O)[O-])cc2)cc(Oc2ccc([N+](=O)[O-])cc2)c1",
    "fold change": 0.979
  },
  {
    "compound": "CN1CCN(C2=Cc3ccccc3Oc3ccc(Cl)cc32)CC1",
    "fold change": 0.963
  }
]

Would you kindly share the measured fold change for CCCCCC(=O)CC[C@H]1C=CC(=O)[C@@H]1C/C=C\CCCC(=O)O ?
0.899

Requested read-out: fold change. Entry: CCOc1c2c(c(OCC)c3ccccc13)C(=O)N(c1ccc(CC(=O)NS(=O)(=O)c3ccccc3)cc1)C2
0.911

Requested field: fold change. Item: CC(C)OC(=O)CCC/C=C\C[C@@H]1[C@@H](/C=C/C(F)(F)COc2ccccc2)[C@H](O)C[C@@H]1O
1.05

Entry under review: CCCC[C@H](C)C[C@H](O)/C=C/[C@H]1[C@H](O)CC(=O)[C@@H]1CCCCC(CC(=O)O)OC (some centres not stated) . Reported fold change?
0.949

What does the record list as fold change for CCC(C)[C@H]1O[C@]2(C=C[C@@H]1C)C[C@@H]1C[C@@H](C/C=C(\C)[C@@H](OC3C[C@H](OC)C(O[C@H]4C[C@H](OC)[C@@H](NC(C)=O)[C@H](C)O4)[C@H](C)O3)[C@@H](C)/C=C/C=C3\CO[C@@H]4[C@H](O)C(C)=C[C@@H](C(=O)O1)[C@]34O)O2 (some centres not stated) ?
1.03

Name the recorded fold change for COc1cc2c(Oc3ccc4[nH]c(C)cc4c3F)ncnc2cc1OCCCN1CCCC1 .
0.973

====

protocol-details: drug combination growth inhibition, ovarian cancer – cell-based, oncology-focused library, rucaparib conditional, profiling panel (AID 1508598)
experimental-setup: patient-derived ovarian cancer cells, CellTiter-Glo viability, 144 h; at 5 µM; OCI-C5x cells; without rucaparib; stronger effect = lower value
observed-property: viability (%)
Kindly answer with a numeric value in %, unit omitted.

Known viability results, listed for orientation:
[
  {
    "chem-smiles": "CC(C)CC(=O)Nc1n[nH]c2c1CN(C(=O)C1CCN(C)CC1)C2(C)C",
    "unit-name": "%",
    "viability": 69.4
  },
  {
    "chem-smiles": "Nc1nc(Nc2ccc(S(N)(=O)=O)cc2)nn1C(=O)c1c(F)cccc1F",
    "unit-name": "%",
    "viability": 11.5
  },
  {
    "chem-smiles": "COC(=O)Nc1ccc(-c2nc(N3CCOCC3)c3cnn(C4CCN(C(=O)OC)CC4)c3n2)cc1",
    "unit-name": "%",
    "viability": 120
  }
]

Record request: viability value, item CC(=O)Nc1cccc(-n2c(=O)n(C3CC3)c(=O)c3c(Nc4ccc(I)cc4F)n(C)c(=O)c(C)c32)c1
52.7

Entry CO[C@@H](C(=O)N1Cc2[nH]nc(NC(=O)c3ccc(N4CCN(C)CC4)cc3)c2C1)c1ccccc1 : reported viability = ?
88.4

Which measured viability value corresponds to COc1ccc(-n2c(SCCCN3C(=O)c4cccc5cccc(c45)C3=O)nnc2-c2ccncc2)cc1 ?
123

GET /values?readout=viability&item= COCCn1c2c([n+](Cc3cnccn3)c1C)C(=O)c1ccccc1C2=O
1.42

Record request: viability value, item C[C@@H](Oc1cc(-c2cnn(C3CCNCC3)c2)cnc1N)c1c(Cl)ccc(F)c1Cl
91.2

Report viability for C[C@@H]1CN(CC(=O)Nc2ccc3c(c2)Cc2cccc(-c4cc(=O)cc(N5CCOCC5)o4)c2S3)C[C@H](C)O1 please.
132
